system: HepG2 cells; assay: Cell growth inhibition assay, HepG2; type: cell-based, human; settings: Homo sapiens, HepG2, 96 h, Table 1; HepG2, hepatocellular carcinoma; growth up to 4 days
Experimental Endpoint: IC50 (nM)
Numbers only, in nM.

Need IC50, item Nc1ccc(-c2nc3ccc(-c4ccc5nc(-c6ccc(N)cc6)[nH]c5c4)cc3[nH]2)cc1
170

----------
test system: MRC5CV1 cells; experiment: Cell growth inhibition assay, MRC5CV1; assay type: cell-based, human; conditions: Table 2 comparison; MRC5CV1, non-cancer; growth up to 4 days
Experimental Endpoint: IC50

Need IC50, item CCOc1ccc(-c2nc3ccc(-c4nc5ccc(N6CCN(C)CC6)cc5[nH]4)cc3[nH]2)cc1 [Hoechst 33342]
350 nM
